# system.under.test: T1, human CD20 (human, UniProt P11836 1-297)
# T1 construct: whole, on cells; Never used as a purified protein; also called hCD20; Bp35
# T1 sequence (looked up): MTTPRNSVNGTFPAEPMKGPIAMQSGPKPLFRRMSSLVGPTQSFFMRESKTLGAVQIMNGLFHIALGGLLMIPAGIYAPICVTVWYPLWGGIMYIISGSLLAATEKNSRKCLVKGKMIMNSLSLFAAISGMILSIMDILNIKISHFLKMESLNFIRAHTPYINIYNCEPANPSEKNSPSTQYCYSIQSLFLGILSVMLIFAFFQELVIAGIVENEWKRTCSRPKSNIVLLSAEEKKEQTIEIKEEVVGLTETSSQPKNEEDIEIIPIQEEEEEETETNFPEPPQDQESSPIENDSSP
# test.details: fixed Ramos cell ELISA, OD 450 nm
measured.metric: maximum OD relative to the C2B8 antibody

AME 18 IgG (antibody, V domains shown, Full IgG) VH: EVQLVQSGAEVKKPGESLKISCKGSGRTFTSYNMHWVRQMPGKGLEWMGAIYPLTGDTSYNQKFKLQVTISADKSISTAYLQWSSLKASDTAMYYCARSYYVGGDWTFDVWGKGTTVTVSS VL: EIVLTQSPGTLSLSPGERATLSCRASSSVPYIHWYQQKPGQAPRLLIYATSALASGIPDRFSGSGSGTDFTLTISRLEPEDFAVYYCQQWLSNPPTFGQGTKLEIK ... ~1.5 times
AME 1D10 IgG (antibody, V domains shown, Full IgG) VH: EVQLVQSGAEVKKPGESLKISCKGSGYTFTSYNMHWVRQMPGKGLEWMGAIYPLNGDTSYNQKFKLQVTISADKSISTAYLQWSSLKASDTAMYYCARSTYVGGDWTFDVWGKGTTVTVSS VL: EIVLTQSPGTLSLSPGERATLSCRASSSVPYIHWYQQKPGQAPRLLIYATSNLASGIPDRFSGSGSGTDFTLTISRLEPEDFAVYYCQQWLSNPPTFGQGTKLEIK ... ~1.5 times
AME 4H5 IgG (antibody, V domains shown, Full IgG) VH: QVQLVQSGAEVKKPGASVKVSCKASGYTFTSYNMHWVRQAPGQGLEWMGAIYPGNGDTSYNQKFKWRVTMTRDTSTSTVYMELSSLRSEDTAVYYCARSTYYGGDWQFDQWGKGTTVTVSS VL: DIQMTQSPSSLSASVGDRVTITCRASSSVHYIHWYQQKPGKVPKLLIYATSNLASGVPSRFSGSGSGTDFTLTISSLQPEDVATYYCQQWTFNPPTFGGGTKVEIK ... ~1.5 times
AME 33 IgG (antibody, V domains shown, Full IgG; also called AME 33 antibody) VH: EVQLVQSGAEVKKPGESLKISCKGSGRTFTSYNMHWVRQMPGKGLEWMGAIYPLTGDTSYNQKSKLQVTISADKSISTAYLQWSSLKASDTAMYYCARSTYVGGDWQFDVWGKGTTVTVSS VL: EIVLTQSPGTLSLSPGERATLSCRASSSVPYIHWYQQKPGQAPRLLIYATSALASGIPDRFSGSGSGTDFTLTISRLEPEDFAVYYCQQWLSNPPTFGQGTKLEIKR ... ~1.5 times

Please fill in: maximum OD relative to the C2B8 antibody reported for AME 15 IgG (antibody, V domains shown, Full IgG) VH: EVQLVQSGAEVKKPGESLKISCKGSGYTFTSYNMHWVRQMPGKGLEWMGAIYPLNGDTSYNRKSKLQVTISADKSISTAYLQWSSLKASDTAMYYCARSTYVGGDWTFDVWGKGTTVTVSS VL: EIVLTQSPGTLSLSPGERATLSCRASSSVPYIHWYQQKPGQAPRLLIYATSNLASGIPDRFSGSGSGTDFTLTISRLEPEDFAVYYCQQWLSNPPTFGQGTKLEIK = ~1.5 times
